System under test: CYP2D6 (Homo sapiens, UniProt P10635)
Sequence (P10635 whole entry): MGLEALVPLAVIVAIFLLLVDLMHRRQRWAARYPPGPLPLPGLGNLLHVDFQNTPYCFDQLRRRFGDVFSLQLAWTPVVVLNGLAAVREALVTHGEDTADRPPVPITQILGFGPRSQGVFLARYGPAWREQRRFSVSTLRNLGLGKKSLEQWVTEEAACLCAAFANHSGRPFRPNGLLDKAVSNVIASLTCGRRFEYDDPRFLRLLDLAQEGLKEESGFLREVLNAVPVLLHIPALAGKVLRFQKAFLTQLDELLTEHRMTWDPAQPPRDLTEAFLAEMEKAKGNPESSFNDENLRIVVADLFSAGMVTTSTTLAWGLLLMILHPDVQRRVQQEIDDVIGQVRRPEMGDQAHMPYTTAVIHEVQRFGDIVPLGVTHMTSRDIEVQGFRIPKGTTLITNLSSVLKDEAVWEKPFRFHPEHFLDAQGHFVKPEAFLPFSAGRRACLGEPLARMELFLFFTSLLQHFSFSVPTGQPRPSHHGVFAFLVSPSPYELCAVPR
Assay remarks: Inhibition of recombinant human CYP2D6 expressed in baculosomes assessed as remaining activity at 10 uM preincubated for 10 mins followed by Vivid substrate addition in presence of NADP+ by fluorescence assay relative to […]
Assay type: ADME
Condition parameters: probe Vivid substrate, read-out: Activity
Measure: activity at 10 µM (%)
Please give a number only; it is taken to be in %.

CC(C)Cc1cc(CNS(=O)(=O)c2cccc3cccnc23)nn1-c1ccc(F)cc1 ... 64.8

Pending compound:
Which measured activity at 10 µM belongs to CC(C)Cc1cc(CNS(=O)(=O)c2cccc3cccnc23)nn1-c1ccccc1 , tested on CYP2D6 (Homo sapiens, UniProt P10635)?
119

###

System under test: 5-hydroxytryptamine receptor 6 (Homo sapiens)
Assay remarks: Inhibition of ligand binding to human 5-HT6R at 10 uM relative to control
# if value of inhibition reaches 40%, tag met; if it stays below, tag not met

Known results for compounds:
CC(C)Cc1cc(CNS(=O)(=O)c2cccc(F)c2)nn1-c1ccccc1 ... not met
CC(C)Cc1cc(CNS(=O)(=O)Cc2cccc3ccccc23)nn1-c1ccccc1 ... not met
CC(C)Cc1cc(CNS(=O)(=O)c2ccccc2)nn1-c1ccccc1 ... not met
O=C1c2[nH]nc(NS(=O)(=O)c3ccc4ccccc4c3)c2CCN1CC1CCNCC1 ... met
CC(C)Cc1cc(CNS(=O)(=O)c2ccc3ccccc3c2)nn1-c1ccccc1 ... met

Does inhibition meet or surpass 40% for CC(C)Cc1cc(CNS(=O)(=O)c2cccc3cccnc23)nn1-c1ccc(F)cc1 ?
met

In plain terms: is recorded inhibition at least 40% for CC(C)Cc1cc(CNS(=O)(=O)Cc2cccc3ccccc23)nn1-c1ccc(F)cc1 ?
not met

Evaluate CC(C)Cc1cc(CNS(=O)(=O)c2ccc(C(C)(C)C)cc2)nn1-c1ccccc1 : inhibition at minimum 40%?
met

###

System under test: CYP2C9 (Homo sapiens)
Sequence (P08684 whole entry): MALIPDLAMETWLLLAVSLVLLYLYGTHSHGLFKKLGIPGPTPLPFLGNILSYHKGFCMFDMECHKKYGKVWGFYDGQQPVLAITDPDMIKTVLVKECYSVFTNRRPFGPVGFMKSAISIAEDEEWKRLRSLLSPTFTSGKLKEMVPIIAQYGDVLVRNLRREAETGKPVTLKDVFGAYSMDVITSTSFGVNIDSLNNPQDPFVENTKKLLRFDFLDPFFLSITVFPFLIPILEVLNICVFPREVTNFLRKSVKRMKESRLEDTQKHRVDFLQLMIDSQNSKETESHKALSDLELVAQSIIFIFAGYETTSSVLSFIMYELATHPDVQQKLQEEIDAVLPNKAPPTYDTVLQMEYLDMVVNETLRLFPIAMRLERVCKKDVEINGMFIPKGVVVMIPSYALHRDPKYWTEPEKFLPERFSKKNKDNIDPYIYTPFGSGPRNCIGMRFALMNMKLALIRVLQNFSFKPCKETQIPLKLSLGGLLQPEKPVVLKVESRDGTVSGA
Assay remarks: Inhibition of recombinant human CYP2C9 expressed in baculosomes assessed as remaining activity at 10 uM preincubated for 10 mins followed by Vivid CYP450 substrate addition in presence of NADP+ by fluorescence assay relative to miconazole
Format: ADME
Condition parameters: probe Vivid CYP450 substrate, read-out: Activity
Measure: activity at 10 µM (%)
The figure you give is taken to be in %; do not add the unit.

Given the compound CC(C)Cc1cc(CNS(=O)(=O)c2cccc3cccnc23)nn1-c1ccc(F)cc1 , what is its reported activity at 10 µM?
3.87

###

System under test: 5-hydroxytryptamine receptor 6 (Homo sapiens, UniProt P50406)
Sequence (P50406 whole entry): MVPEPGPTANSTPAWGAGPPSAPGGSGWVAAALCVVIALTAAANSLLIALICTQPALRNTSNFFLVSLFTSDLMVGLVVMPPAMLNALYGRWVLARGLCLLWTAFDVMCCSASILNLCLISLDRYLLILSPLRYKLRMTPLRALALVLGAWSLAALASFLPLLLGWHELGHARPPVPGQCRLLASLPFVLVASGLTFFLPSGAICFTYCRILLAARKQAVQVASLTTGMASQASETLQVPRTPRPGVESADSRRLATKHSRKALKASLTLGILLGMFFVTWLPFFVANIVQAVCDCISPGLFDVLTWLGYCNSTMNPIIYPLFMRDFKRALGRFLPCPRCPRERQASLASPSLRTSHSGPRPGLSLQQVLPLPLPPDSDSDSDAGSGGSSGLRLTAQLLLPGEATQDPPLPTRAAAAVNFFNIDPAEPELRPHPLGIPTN
Assay remarks: Inhibition of ligand binding to human 5-HT6R at 10 uM relative to control
The reader will find reported inhibition values listed item by item below.
Kindly write the number and append the unit.

CC(C)Cc1cc(CNS(=O)(=O)c2cccc(Cl)c2)nn1-c1ccccc1 ... 40.8%

Now look at this one.
# query: inhibition of entry CC(C)Cc1cc(CNS(=O)(=O)c2cccc3cccnc23)nn1-c1ccccc1
106%

###

System under test: 5-hydroxytryptamine receptor 6 (Homo sapiens, UniProt P50406)
Assay remarks: Inhibition of ligand binding to human 5-HT6R at 10 uM relative to control
Measure: inhibition (%)
Give the value, in units of %, as a plain number.

Cc1c(Cl)cccc1S(=O)(=O)NCc1cc(CC(C)C)n(-c2ccccc2)n1 ... 72.3
CC(C)Cc1cc(CNS(=O)(=O)c2cccc3ccccc23)nn1-c1ccccc1 ... 77.7

# next compound below
Given the compound CC(C)Cc1cc(CNS(=O)(=O)c2c(Cl)cccc2Cl)nn1-c1ccccc1 , what is its reported inhibition?
59.4

Value source: ChEMBL document CHEMBL4052782
